Listed here are compounds together with their documented inhibition.
- tested.on: UniProtKB P22460
- Sequence (P22460 whole entry): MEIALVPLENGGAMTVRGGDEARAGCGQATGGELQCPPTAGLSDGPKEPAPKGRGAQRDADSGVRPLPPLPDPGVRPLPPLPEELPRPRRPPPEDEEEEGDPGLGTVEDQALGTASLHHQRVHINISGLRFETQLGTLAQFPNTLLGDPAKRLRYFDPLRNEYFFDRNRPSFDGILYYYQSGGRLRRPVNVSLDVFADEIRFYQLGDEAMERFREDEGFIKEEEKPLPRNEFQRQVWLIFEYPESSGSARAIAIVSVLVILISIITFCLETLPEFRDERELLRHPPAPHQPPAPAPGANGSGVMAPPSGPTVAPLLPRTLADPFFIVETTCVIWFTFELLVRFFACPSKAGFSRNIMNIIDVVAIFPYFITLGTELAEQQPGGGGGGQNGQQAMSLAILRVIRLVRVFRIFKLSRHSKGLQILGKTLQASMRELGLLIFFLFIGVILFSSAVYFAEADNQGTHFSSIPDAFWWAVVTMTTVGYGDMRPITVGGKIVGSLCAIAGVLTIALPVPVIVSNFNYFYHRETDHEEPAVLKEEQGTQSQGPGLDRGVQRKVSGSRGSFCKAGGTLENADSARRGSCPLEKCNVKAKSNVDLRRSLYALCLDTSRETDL
- experiment.description: Inhibition of human Kv1.5 channel expressed in mouse L929 cells at 1 uM by patch-clamp electrophysiology method
- Type: cell-based
Answer format: numeric, % implied, no suffix.

Worked set:
| molecule | inhibition / % |
| --- | --- |
| COc1cccc(C(=O)Nc2ccc3c(c2)[C@@H](NS(=O)(=O)c2ccc(Br)cc2)[C@H](O)CC3)c1 | 14 |
| COc1cccc(C(=O)Nc2ccc3c(c2)[C@@H](NS(=O)(=O)c2ccc(C(F)(F)F)cc2)[C@H](O)CC3)c1 | 21 |
| COc1cccc(C(=O)Nc2ccc3c(c2)[C@@H](NS(=O)(=O)c2ccc([N+](=O)[O-])cc2)[C@H](O)CC3)c1 | 6 |
| CCc1ccc(S(=O)(=O)N[C@@H]2c3cc(NC(=O)[C@H]4CCCN4Cc4ccc(C)cc4)ccc3CC[C@H]2O)cc1 | 75 |

Per the record, CCc1ccc(S(=O)(=O)N[C@@H]2c3cc(NC(=O)CNCc4ccccc4)ccc3CC[C@H]2O)cc1 has inhibition of 31

Per the record, CCc1ccc(NCC(=O)Nc2ccc3c(c2)[C@@H](NS(=O)(=O)c2ccc(CC)cc2)[C@H](O)CC3)cc1 has inhibition of 15

Per the record, CCc1ccc(S(=O)(=O)N[C@@H]2c3cc(NC(=O)[C@H]4CCCN4Cc4cccc(C(F)(F)F)c4)ccc3CC[C@H]2O)cc1 has inhibition of 89

Per the record, COc1cccc(C(=O)Nc2ccc3c(c2)[C@@H](NS(=O)(=O)c2cccc(F)c2)[C@H](O)CC3)c1 has inhibition of 2

Per the record, CCc1ccc(S(=O)(=O)N[C@@H]2c3cc(NC(=O)[C@H]4CCCN4Cc4ccccc4Cl)ccc3CC[C@H]2O)cc1 has inhibition of 87

Per the record, COc1cccc(C(=O)Nc2ccc3c(c2)[C@@H](NS(=O)(=O)c2ccc(Cl)cc2)[C@H](O)CC3)c1 has inhibition of 11

Per the record, CCc1ccc(S(=O)(=O)N[C@@H]2c3cc(NC(=O)[C@H]4CCCN4Cc4ccc(OC(F)(F)F)cc4)ccc3CC[C@H]2O)cc1 has inhibition of 86

Per the record, CCc1ccc(S(=O)(=O)N[C@@H]2c3cc(NC(=O)CNc4ccccc4)ccc3CC[C@H]2O)cc1 has inhibition of 10

Per the record, CCc1ccc(S(=O)(=O)N[C@@H]2c3cc(NC(=O)CNc4ccc(OC)cc4)ccc3CC[C@H]2O)cc1 has inhibition of 18

Per the record, COc1cccc(C(=O)Nc2ccc3c(c2)[C@@H](NS(=O)(=O)c2cccc(Cl)c2)[C@H](O)CC3)c1 has inhibition of 2

These measurements were taken from ChEMBL document CHEMBL1136885.
